target: DLL3 endogenously expressed on NCI-H82 cells (UniProt Q9NYJ7); assay: FACS on NCI-H82 cells; antibody 0.00128 nM
Sequence (Q9NYJ7 27-618): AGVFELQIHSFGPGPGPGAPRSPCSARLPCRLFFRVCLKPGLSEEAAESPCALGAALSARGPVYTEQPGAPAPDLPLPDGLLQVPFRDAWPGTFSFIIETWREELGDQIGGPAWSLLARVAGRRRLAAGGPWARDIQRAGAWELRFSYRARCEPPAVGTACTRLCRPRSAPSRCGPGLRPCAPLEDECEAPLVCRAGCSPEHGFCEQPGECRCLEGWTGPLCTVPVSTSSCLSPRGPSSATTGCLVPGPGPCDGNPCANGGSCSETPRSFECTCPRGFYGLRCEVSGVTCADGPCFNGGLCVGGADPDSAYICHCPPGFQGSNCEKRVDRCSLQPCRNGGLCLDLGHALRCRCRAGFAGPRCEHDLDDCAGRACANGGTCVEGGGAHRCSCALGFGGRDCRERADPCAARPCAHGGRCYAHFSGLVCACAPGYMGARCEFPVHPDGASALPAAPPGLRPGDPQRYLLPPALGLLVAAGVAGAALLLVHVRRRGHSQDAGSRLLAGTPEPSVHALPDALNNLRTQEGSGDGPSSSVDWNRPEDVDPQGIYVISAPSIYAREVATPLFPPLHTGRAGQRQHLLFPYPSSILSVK
Catalogue of MFI values
No unit in the answer, please; the number alone is enough.

Hab009VL2aVH1-hFc (Fc fusion, part only; not given: Linker and human IgG1 Fc, not shown: a dimerising Fc or GST) chain, part: DIVMTQSPLSLPVTPGEPASISCRASQTISDYLHWYLQKPGQSPRLLIKYASQSISGVPDRFSGSGSGTDFTLKISRVEAEDVGVYYCQQGHSFPLTFGQGTKLEIKEVQLVQSGAEVKKPGASVKVSCKASGYTFTSYWMHWVRQAPGQRLEWMGTIYPGNSDTRYNQKFKDRVTITADTSASTAYMELSSLRSEDTAVYYCTRSYDYGDLDYWGQGTTVTVSS; 124
Hab013VL2VH2a-hFc (scFv, part only; not given: scFv linker and human IgG1 Fc, V domains shown, not shown: another chain or arm of the molecule; a dimerising Fc or GST; small tags and cut ends) VL: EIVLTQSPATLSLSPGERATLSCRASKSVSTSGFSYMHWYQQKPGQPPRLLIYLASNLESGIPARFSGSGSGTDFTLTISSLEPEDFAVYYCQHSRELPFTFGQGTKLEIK VH: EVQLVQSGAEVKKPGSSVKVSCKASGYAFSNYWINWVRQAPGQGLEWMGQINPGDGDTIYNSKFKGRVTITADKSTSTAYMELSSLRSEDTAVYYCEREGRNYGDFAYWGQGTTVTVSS; 130

Please look at the following binder next.
Please report the recorded MFI for Hab014VL3VH1-hFc (scFv, part only; not given: VL-VH linker and human IgG1 Fc, V domains shown, not shown: another chain or arm of the molecule; a dimerising Fc or GST; small tags and cut ends) VL: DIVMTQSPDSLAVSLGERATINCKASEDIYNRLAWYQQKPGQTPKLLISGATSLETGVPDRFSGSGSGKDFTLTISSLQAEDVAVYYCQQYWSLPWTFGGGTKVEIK VH: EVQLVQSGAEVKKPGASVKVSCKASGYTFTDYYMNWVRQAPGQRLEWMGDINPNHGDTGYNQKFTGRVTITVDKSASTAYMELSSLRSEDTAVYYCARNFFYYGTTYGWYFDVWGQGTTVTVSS .
108
